# Experiment Summary: Toxicity liver stage against HepG2, at 10uM
# Type: cell-based
# Set-up: test concentration 10 uM, cell line HepG2-A16-CD81EGFP
# Applied Conditions: human, HepG2-A16-CD81EGFP cells; read-out: INHIBITION
Reported Endpoint: cytotoxicity at 10 µM (%)
Number in %, nothing else.

1) CC(C)c1ccc(OCCC(=O)N2CCCN(C(N)=O)CC2)cc1 : -15.5
2) COCc1cc(CN(C)C(=O)c2c[nH]nc2-c2cccc(F)c2)n[nH]1 : 0.445
3) O=C(NCc1ccccc1CN1CCCCCC1)Nc1nncs1 : 4.22
4) CC(C)S(=O)(=O)NCC1CCCN(C(=O)c2cccnc2)C1 (stereo unspecified) : -7.16
5) COC1CCN(c2ccc(NC(=O)C3CC3)cc2C(F)(F)F)CC1 : 39.5

Challenge: Identify the reported cytotoxicity at 10 µM for the following entry. O=C(NC1CCCc2nc(N3CCOCC3)ncc21)C1CCCC1 (stereo unspecified)
Response given: -2.3

Challenge: Identify the reported cytotoxicity at 10 µM for the following entry. "CC(=O)N1CC[C@H]2C(=O)N(c3ccsc3)CCO[C@H]2C1"
Response given: 4.47

Challenge: Identify the reported cytotoxicity at 10 µM for the following entry. "Cc1cc(CN2CCN(C(=O)C3CCC3)[C@@H]3CS(=O)(=O)C[C@@H]32)ccc1F"
Response given: 0.66

Challenge: Identify the reported cytotoxicity at 10 µM for the following entry. "O=C(CC1CC1)N1CCC2(CC1)CN(c1ncc(F)cn1)CCO2"
Response given: -72.8

Challenge: Identify the reported cytotoxicity at 10 µM for the following entry. "COc1ccc(NC(=O)COc2nn(C)c3nc(C)cc(C)c23)cn1"
Response given: -4.36

Challenge: Identify the reported cytotoxicity at 10 µM for the following entry. CCc1noc(CN(Cc2cccs2)CC2CCCO2)n1 (stereo unspecified)
Response given: -8.66

----------
# Experiment Summary: Toxicity liver stage against HepG2, at 10uM
# Type: cell-based
# Set-up: test concentration 10 uM, cell line HepG2-A16-CD81EGFP
# Applied Conditions: human, HepG2-A16-CD81EGFP cells; read-out: INHIBITION
Classification field: Satisfied = cytotoxicity at 10 µM at or over -10%; Not satisfied = cytotoxicity at 10 µM under -10%.

Challenge: Hello, I need to know if CNC(=O)c1cn[nH]c1C1CCN(Cc2cn(C)nc2C)C1 (stereo unspecified) has measured cytotoxicity at 10 µM not below -10%. Thanks!
Response given: Not satisfied

Challenge: Hello, I need to know if CN(C)Cc1cn(CC2CCCN(c3nccc4occc34)C2)nn1 (stereo unspecified) has measured cytotoxicity at 10 µM not below -10%. Thanks!
Response given: Satisfied

Challenge: Hello, I need to know if "CCN(CC)C1CCN(C(=O)c2cc(-n3cccn3)ccc2Cl)CC1" has measured cytotoxicity at 10 µM not below -10%. Thanks!
Response given: Satisfied

Challenge: Hello, I need to know if "CCN1C(=O)C[C@@H]2[C@@H]1CCN2S(=O)(=O)Cc1ccc(C)cc1" has measured cytotoxicity at 10 µM not below -10%. Thanks!
Response given: Satisfied

Challenge: Hello, I need to know if "COCC(=O)N[C@@H]1CN(Cc2ccc3c(c2)OCCO3)C[C@H]1O" has measured cytotoxicity at 10 µM not below -10%. Thanks!
Response given: Not satisfied

Challenge: Hello, I need to know if "O=C1CNc2ncnc(Nc3cnn(Cc4ccccc4)c3)c2N1" has measured cytotoxicity at 10 µM not below -10%. Thanks!
Response given: Satisfied

----------
# Experiment Summary: Toxicity liver stage against HepG2, at 10uM
# Assay type: cell-based
# Parameters: test concentration 10 uM, cell line HepG2-A16-CD81EGFP
# Applied Conditions: human, HepG2-A16-CD81EGFP cells; read-out: INHIBITION
Reported Endpoint: cytotoxicity at 10 µM (%)
Number in %, nothing else.

Challenge: Identify the reported cytotoxicity at 10 µM for the following entry. CCC(NCCn1cccn1)C(=O)Nc1cc(C)on1 (configuration not stated)
Response given: 13.4

Challenge: Identify the reported cytotoxicity at 10 µM for the following entry. Cc1n[nH]c(C)c1NC(=O)CCc1cccc(C2CCCN(C)C2)n1 (configuration not stated)
Response given: -6.19

Challenge: Identify the reported cytotoxicity at 10 µM for the following entry. "Cc1csc(N2CCCN(C(=O)Cc3ccc(C)s3)CC2)n1"
Response given: -12

Challenge: Identify the reported cytotoxicity at 10 µM for the following entry. CCN1CCN(c2ccc(F)cc2C(C)NCc2cscn2)CC1 (configuration not stated)
Response given: -10.3

Challenge: Identify the reported cytotoxicity at 10 µM for the following entry. "CN(C)C(=O)[C@H]1C[C@H]2[C@H](CCN2Cc2ccc3c(c2)OCO3)O1"
Response given: 2.36

----------
# Experiment Summary: Toxicity liver stage against HepG2, at 10uM
# Format: cell-based
# Set-up: test concentration 10 uM, cell line HepG2-A16-CD81EGFP
# Applied Conditions: human, HepG2-A16-CD81EGFP cells; read-out: INHIBITION
Reported Endpoint: cytotoxicity at 10 µM (%)
Number in %, nothing else.

1) Cc1cc(C2CCCCN2C(=O)c2ccsc2)nc2nccn12 (centres undefined) : -11.8
2) COC(C)c1nc(CN2CCCNCC2)cs1 (centres undefined) : -3.78

Please look at the following compound next.
Challenge: Identify the reported cytotoxicity at 10 µM for the following entry. CN(C)S(=O)(=O)N1CCCCC1CCc1ccc(O)cc1 (centres undefined)
Response given: 4.32

----------
# Experiment Summary: Toxicity liver stage against HepG2, at 10uM
# Type: cell-based
# Set-up: test concentration 10 uM, cell line HepG2-A16-CD81EGFP
# Applied Conditions: human, HepG2-A16-CD81EGFP cells; read-out: INHIBITION
Measured cytotoxicity at 10 µM, listed per entry for reference.
Number in %, nothing else.

Challenge: Identify the reported cytotoxicity at 10 µM for the following entry. "Cc1ccc(NC2CCN(C(=O)CCc3ccncc3)CC2)nn1"
Response given: -9.43

----------
# Experiment Summary: Toxicity liver stage against HepG2, at 10uM
# Format: cell-based
# Design: test concentration 10 uM, cell line HepG2-A16-CD81EGFP
# Applied Conditions: human, HepG2-A16-CD81EGFP cells; read-out: INHIBITION
Measured cytotoxicity at 10 µM, listed per entry for reference.
Number in %, nothing else.

Completed entries (count: 5):
1) Cn1ccnc1C(=O)N[C@@H]1CN(CC2CCOCC2)[C@@H]2CCCO[C@@H]21 : -97.8
2) O=C(Nc1cc(F)ccc1OCC1CCCO1)N1CCSCC1 (stereo unspecified) : -1.79
3) COC(=O)c1cccc(S(=O)(=O)Nc2ccc(F)c(C(N)=O)c2)c1 : 8.67
4) COc1cccc(CN2CCCC3(CCN(C(=O)N4CCCC4)C3)C2)c1 (stereo unspecified) : -4.34
5) CSCc1noc(CN2CC(Cc3ccccc3)CC2=O)n1 (stereo unspecified) : -0.404

Challenge: Identify the reported cytotoxicity at 10 µM for the following entry. "Cc1ccc(CN2CC[C@@H]3[C@@H]2CCN3C(=O)Cc2cccs2)o1"
Response given: -119

Challenge: Identify the reported cytotoxicity at 10 µM for the following entry. "COc1ccc(OCC(=O)n2nc(C)c(C)c2C)cc1"
Response given: -6.32

Challenge: Identify the reported cytotoxicity at 10 µM for the following entry. "CC(C)n1nc(CN(C)C)c2c1CN(C(=O)CC1CC1)CC2"
Response given: -6.72

Challenge: Identify the reported cytotoxicity at 10 µM for the following entry. "Cc1cc(C)n(C2CN(c3ncnc4c3CCC4)C2)n1"
Response given: 8.09

Challenge: Identify the reported cytotoxicity at 10 µM for the following entry. "N#Cc1ccc(CNc2ncc(C#N)cc2Cl)cc1"
Response given: 17.7

Challenge: Identify the reported cytotoxicity at 10 µM for the following entry. O=C(CN1CCSCC1c1ccccc1)N1CCOCC1 (stereo unspecified)
Response given: -5.88

----------
Measured cytotoxicity at 10 µM, listed per entry for reference.
# Experiment Summary: Toxicity liver stage against HepG2, at 10uM
# Type: cell-based
# Parameters: test concentration 10 uM, cell line HepG2-A16-CD81EGFP
# Applied Conditions: human, HepG2-A16-CD81EGFP cells; read-out: INHIBITION
Number in %, nothing else.

Completed entries (count: 3):
1) O=c1ccc2c([nH]1)CCC(NCc1ccc3c(c1)OCO3)C2 (configuration not stated) : 6.69
2) COC(=O)C(NC(=O)Nc1ccc(C(C)=O)cc1)C(C)C (configuration not stated) : 4.31
3) Cc1ccccc1S(=O)(=O)NC(=O)C1(c2cccc(Cl)c2)CC1 : 1.97

Challenge: Identify the reported cytotoxicity at 10 µM for the following entry. Cc1cc(C(=O)N2CCCC3(COCCN(c4ccccc4)C3)C2)[nH]n1 (configuration not stated)
Response given: -1.56

Challenge: Identify the reported cytotoxicity at 10 µM for the following entry. "c1ccc(CCCN2CCCN(c3ncnc4[nH]ccc34)CC2)cc1"
Response given: -5.86

Challenge: Identify the reported cytotoxicity at 10 µM for the following entry. "CC(C)c1ncc2c(n1)CN(Cc1nc(-c3ccco3)no1)CC2"
Response given: -11.4

Challenge: Identify the reported cytotoxicity at 10 µM for the following entry. "COCCN(C)c1nc(-c2ccncc2)nc2c1CCN(C(C)=O)C2"
Response given: -2.16

Challenge: Identify the reported cytotoxicity at 10 µM for the following entry. "CS(=O)(=O)NC1CCN(CCOCc2ccccc2)CC1"
Response given: 2.84
